Test system: U251 CNS
Assay: NCI tumour cell line growth inhibition, 48 h
Where a SMILES comes first, the peptide text is derived from it. The star is where a group is joined. Boc = CC(C)(C)OC(=O)*; OBn = c1ccc(CO*)cc1; Bn = c1ccc(C*)cc1
Form field: TGI (one value per entry).
outcome-measure: TGI

>>> result("CCOc1ccccc1NC(=O)C(=O)C1C(=O)Nc2ccccc2S1=O (centres undefined)")
"> 100 µM"
>>> result("O=C(c1ccc(Cl)cc1)N(C(=S)N1CCN(c2ccccc2)CC1)C1CCCCC1")
"> 100 µM"
>>> result("NC(=O)NC1=NCCC(=O)N1CCc1c[nH]c2ccccc12")
"> 100 µM"
>>> result("CC(C)CC(NC(=O)C(CCC(=O)OCc1ccccc1)NC(=O)OC(C)(C)C)C(=O)NC(COCc1ccccc1)C(=O)NC(Cc1ccccc1)C(=O)O (centres undefined) (Boc-E(OBn)LS(Bn)F-OH; configuration not given here)")
"> 100 µM"
>>> result("COc1c(Cl)ccc(Cl)c1-c1nnc(-c2c(Cl)c(Cl)c(Cl)c(Cl)c2-c2nc3ccc(C(=O)c4ccccc4)cc3[nH]2)o1")
"> 100 µM"
>>> result("O=C1c2cc(Br)ccc2-c2c1c1ccccc1c(=O)n2CCCCl")
"36.7 µM"
>>> result("COc1ccc(-n2cc(-c3ccc(Cl)cc3)[nH]c2=S)cc1Cl")
"> 100 µM"
>>> result("COc1cccc(-n2cnc3c(N/N=C/c4ccncc4)ncnc32)c1")
"> 25 µM"
>>> result("CC(C)=CCC[C@@H](C)c1c(O)c(O)c(C)c2nc3ccccc3nc12")
"22.8 µM"
